System: EKVX NSCLC
test_name: NCI-60 one-dose screen, 48 h (100 = growth as untreated, 0 = no growth, -100 = all killed)
settings: 10 µM unless noted
Compounds without any hit were thinned out: in the full panel of roughly 83,000, 20% have a hit. The source made the active and inactive calls. The calls were made as follows: active = growth percent below 10; inactive = the rest.
Field: growth. Provide a value for each of the compounds that follow.

I would be grateful if you could share the reported growth for `Clc1ccc(N/N=c2/oc3ccccc3cc2-c2cc3ccccc3[nH]2)cc1` .
70.2% (inactive)

I would be grateful if you could share the reported growth for `CNC(=O)c1cc(Oc2ccc3nc(NC(=O)c4ccc(N5CCOCC5)c(C(F)(F)F)c4)sc3c2)ccn1` .
78.7% (inactive)

I would be grateful if you could share the reported growth for `O=C(O)c1ccc(-n2cc(CNc3cc(F)c(F)c(F)c3)c(-c3ccc(F)cc3)n2)cc1` .
85.6% (inactive)

I would be grateful if you could share the reported growth for `Nc1nc(-c2cccc([N+](=O)[O-])c2)c(N=Nc2ccc(Br)cc2)s1` .
8.7% (active)

I would be grateful if you could share the reported growth for `COc1ccc(-c2nn(-c3ccc(S(C)(=O)=O)cc3)cc2/C=N/O)cc1` .
104% (inactive)

I would be grateful if you could share the reported growth for `CC1=NC2=NC(=O)/C(=C3/N=C(C)C=C(c4ccccc4)N3N)NN2C(c2ccccc2)=C1` .
83.8% (inactive)

I would be grateful if you could share the reported growth for `Oc1ccc(CSc2nnc(-c3ccc(Cl)cc3)n2-c2ccccc2)c2cccnc12` .
28.6% (inactive)

I would be grateful if you could share the reported growth for `c1n[nH]cc1-c1nc2ccc3[nH]ncc3c2c2c1CCCC2` .
42.1% (inactive)

I would be grateful if you could share the reported growth for `CCN(CC)c1cn(-c2ccc(S(N)(=O)=O)cc2)nn1` .
105% (inactive)

I would be grateful if you could share the reported growth for `O=C(NCCn1ccnc1)c1ccc(-c2nc3ccc4[nH]ncc4c3c3c2CCCC3)cc1` .
87.6% (inactive)

* * *

Field: growth. Provide a value for each of the molecules that follow.
System: KM12 colon
test_name: NCI-60 one-dose screen, 48 h (100 = growth as untreated, 0 = no growth, -100 = all killed)
settings: 10 µM unless noted
Method: Growth inhibition of the KM12 human tumor cell line is measured as a screen for anti-cancer activity. Cells are grown in 96 well plates and exposed to the test compound for 48 hours. Compounds are tested at a single concentration, which is 10^-5 M for most compounds. The reported endpoint is percent growth (GI% or GIPRCNT), where numbers from 0 - 100% represent growth inhibition, and numbers from -100% - 0 represent cell death. For example, a value of 40 represents 60% growth inhibition. […]
The panel holds about 83,000 compounds, 20% with a hit somewhere; the sample as a whole holds those more often. Activity calls are given as the source filed them. Rule for the calls: active = growth percent below 10; inactive = the rest.

I would be grateful if you could share the reported growth for `O=C(Nc1cccc(Cl)c1)Nc1nc2ccc([N+](=O)[O-])cc2o1` .
7.17% (active)

I would be grateful if you could share the reported growth for `NC(N)=Nc1ccc(Oc2cccc(Oc3ccc(Cl)c(C(F)(F)F)c3)c2)cn1` .
-89.6% (active)

I would be grateful if you could share the reported growth for `CNC(=O)c1cc(-c2ccc(NC(=S)Nc3cc(C(F)(F)F)cc(C(F)(F)F)c3)cc2)nc2cccnc12` .
98.6% (inactive)

I would be grateful if you could share the reported growth for `CC1(C)[C@@H](O)CC[C@]2(C)[C@H]3CC[C@@H]4[C@H]5[C@H](C(=O)/C=C\c6ccc([N+](=O)[O-])cc6)CC[C@]5(O)CC[C@@]4(C)[C@]3(C)CC[C@@H]12` .
53.3% (inactive)

I would be grateful if you could share the reported growth for `C#CCn1cccc1CNc1ccc(OC)cc1` .
-72.6% (active)

I would be grateful if you could share the reported growth for `CC(=O)c1nnn(-c2c(C(=O)n3nc(C)cc3C)sc(=S)n2-c2ccccc2)c1C` .
104% (inactive)

I would be grateful if you could share the reported growth for `CN1CCN(c2ccc(/C=N/n3cnc4oc(-c5ccccc5)cc4c3=N)cc2)CC1` .
63.7% (inactive)

I would be grateful if you could share the reported growth for `O=C1[C@@H]2Cc3c([nH]c4ccccc34)[C@H](c3c(Cl)cccc3Cl)N2C(=O)CN1C1CCN(CC2CCCCC2)CC1` .
68.7% (inactive)

I would be grateful if you could share the reported growth for `O=C1C(c2ccccc2)=C(N2CCc3ccccc32)OC1(Cl)Cl` .
87.9% (inactive)

I would be grateful if you could share the reported growth for `Nc1nc(Nc2ccccc2SSc2ccccc2Nc2nc(N)nc(-c3ccc4ccccc4c3)n2)nc(-c2ccc3ccccc3c2)n1` .
51.5% (inactive)

I would be grateful if you could share the reported growth for `Cc1[nH]c(C(=O)Nc2ccccc2OCc2cccc(C(=O)N3CCC[C@@H](N)C3)c2)c(Cl)c1Cl` .
-80% (active)

I would be grateful if you could share the reported growth for `NC(=O)c1c(NC(=O)c2ccccc2C(F)(F)F)sc2c1CCC(=O)C2` .
9.45% (active)

I would be grateful if you could share the reported growth for `c1n[nH]cc1-c1nc2ccc3[nH]ncc3c2c2c1CCCC2` .
5.28% (active)

I would be grateful if you could share the reported growth for Nc1nc(N)c2c(n1)NC(c1ccc(Cl)cc1)CC(c1ccc(Nc3nc(NCCO)nc(N4CCOCC4)n3)cc1)=N2 (centres undefined) .
65.3% (inactive)

I would be grateful if you could share the reported growth for `COc1ccc(C(=O)Nc2ncc(Cc3ccccc3Cl)s2)cc1` .
9.41% (active)

I would be grateful if you could share the reported growth for `NC(N)=Nc1ccc(Oc2cccc(NC(N)=Nc3ccc(Br)c(C(F)(F)F)c3)c2)cc1` .
20.4% (inactive)

I would be grateful if you could share the reported growth for `CS(=O)(=O)Nc1cc(-c2ccc3ncc(C#N)c(NCc4ccccc4O)c3c2)cnc1Cl` .
10% (inactive)

I would be grateful if you could share the reported growth for `O=C(NCCN1CCCC1)c1ccc(-c2nc3ccc4[nH]ncc4c3c3c2CCCC3)cc1` .
1.12% (active)

I would be grateful if you could share the reported growth for `NC(=O)c1c(NC(=O)c2ccc(F)cc2F)sc2c1CCC(=O)C2` .
17.2% (inactive)

* * *

System: MOLT-4 leukemia
test_name: NCI-60 one-dose screen, 48 h (100 = growth as untreated, 0 = no growth, -100 = all killed)
settings: 10 µM unless noted
The panel holds about 83,000 compounds, 20% with a hit somewhere; the sample as a whole holds those more often.
assay_metric: growth (%)
Quick reminder: number only, in %, skip the unit.

I would be grateful if you could share the reported growth for `Cc1ccc(S(=O)(=O)NCCNc2nc(Nc3ccc(N4CCN(C)CC4)cc3)nc3ccsc23)cc1` .
79.1

I would be grateful if you could share the reported growth for `CC(=O)c1cc(C(=O)N2c3ccccc3Sc3ccccc32)n2ccc3ccccc3c12` .
49.1

I would be grateful if you could share the reported growth for CC(=O)N1C(=S)NC(=O)C1CC(C)C (centres undefined) .
105

I would be grateful if you could share the reported growth for `CN(C)CCCOc1ccc2c(c1)CN(C(=O)c1cc(C(=O)N3Cc4cccc(F)c4C3)ccc1O)C2` .
97.5

I would be grateful if you could share the reported growth for `COc1ccccc1C(=O)Nc1cccc2c1C(=O)C(=O)C=C2` .
36.8

I would be grateful if you could share the reported growth for `COc1cc(Cn2cc3c(c2)-c2onc(CN4CCOCC4)c2CC3)cc(OC)c1OC` .
98.3

I would be grateful if you could share the reported growth for `O=C1[C@H]2Cc3c([nH]c4ccccc34)[C@@H](c3ccc(Br)cc3)N2C(=O)CN1C1CCN(CC2CCCCC2)CC1` .
-43.5

I would be grateful if you could share the reported growth for `COc1cc(OC)c(/C=C/S(=O)(=O)Cc2ccc(OC)c(NC(=O)CCC(=O)NO)c2)c(OC)c1` .
17.2

I would be grateful if you could share the reported growth for `CNC(=O)c1cc(N2CCc3cc(NC(=O)Nc4ccc(Cl)c(C(F)(F)F)c4)ccc32)ccn1` .
35.6

* * *

Field: growth. Provide a value for each of the molecules that follow.
Tested on: CAKI-1 renal
test_name: NCI-60 one-dose screen, 48 h (100 = growth as untreated, 0 = no growth, -100 = all killed)
settings: 10 µM unless noted
Compounds without any hit were thinned out: in the full panel of roughly 83,000, 20% have a hit. Activity calls are given as the source filed them. How the source made its calls: active means growth percent below 10; inactive means the rest.

I would be grateful if you could share the reported growth for `Cc1ccc(CSc2nc(-c3ccc(Cl)cc3)c(C#N)c(N3CCNCC3)n2)cc1` .
64.9% (inactive)

I would be grateful if you could share the reported growth for `COc1cc(-c2nn(C(C)(C)C)cc2-c2ccnc(NCCCNS(=O)(=O)c3ccc(F)cc3)n2)ccc1Cl` .
25% (inactive)

I would be grateful if you could share the reported growth for `O=S(=O)(Nc1ccc(I)cc1Cl)c1ccc(-c2cnc(C3CC3)o2)cc1` .
39.1% (inactive)

I would be grateful if you could share the reported growth for `CCCCCc1ccc(S(=O)(=O)Nc2cccc(-c3csc(NC(=O)CN4CCN(CCO)CC4)n3)c2)cc1` .
76.2% (inactive)

I would be grateful if you could share the reported growth for CCO/C=N/C1=C(C#N)C(c2ccc(F)cc2)c2sc3c(CC)cccc3c2O1 (stereo not given) .
36.4% (inactive)
